# test_summary: Solubility of nomegestrol acetate in solvent mixtures
# Format: physicochemical
# cond: 95° ethanol/water binary mixture, aqueous with cosolvent or surfactant or cyclodextrin, 95° ethanol/water binary mixture, 20% 95° ethanol; read-out: Solubility of nomegestrol acetate

{"molecule": "CC(=O)O[C@]1(C(C)=O)CC[C@H]2[C@@H]3C=C(C)C4=CC(=O)CC[C@@H]4[C@H]3CC[C@@]21C [nomegestrol acetate]", "solubility": "113 µg/mL"}

* * *

# test_summary: Solubility of nomegestrol acetate in solvent mixtures
# Assay type: physicochemical
# cond: ethanol/water/propyleneglycol ternary mixture, aqueous with cosolvent or surfactant or cyclodextrin, System II (Ethanol 95° 40%/Demineralized water 60%), 20% propyleneglycol; read-out: Solubilities

{"compound": "CC(=O)O[C@]1(C(C)=O)CC[C@H]2[C@@H]3C=C(C)C4=CC(=O)CC[C@@H]4[C@H]3CC[C@@]21C [nomegestrol acetate]", "solubility, µg/mL": 3900}

Entry source: patent US20080227763A1
